Hello, the source for this data is patent US6090828A, in case you need it.

Listed below: IC50 values for each entry.
molecular target: smooth muscle angiotensin II receptor; experiment: Assay A: Angiotensin II Binding Activity; conditions: 50% displacement of specifically bound 125I-AII; rat uterine membranes; pH 7.5; 25° C., 60 min
Report only the number, with the unit nM understood.

# Compound, Readout unit, IC50
measured = [
    ("CCCCn1nc(C(F)CCC)nc1Cc1ccc(-c2ccccc2-c2nnn[nH]2)nc1 (stereo not drawn) [Example 12]", "nM", 28),
    ("CCCCc1nc(Cc2ccc(-c3ccccc3-c3nnn[nH]3)nc2)n(CC(CC)CC)n1 [Example 8]", "nM", 530),
]

Challenge: # query: IC50 | item CCCCCc1nc(Cc2ccc(-c3ccccc3-c3nnn[nH]3)nc2)n(CCCC)n1 [Example 7] | system: smooth muscle angiotensin II receptor
Response given: 78

----------
biological target: rabbit aortic rings (Oryctolagus cuniculus, UniProt P34976); construct: The thoracic aorta was removed, cleaned of adherent fat and connective tissue and then cut into 3-mm ring segments; from tissue; host or cells: rabbit thoracic aorta rings, endothelium removed; test: Assay B: In Vitro Vascular Smooth Muscle Response for AII; set-up: species or system rabbit (male New Zealand white); settings: rabbit aorta rings, two rabbits per antagonist; antagonist 10^-5 M, 5 minutes; AII contraction; Schild; read-out: pA2 (second of two values) (converted)
Listed below: Kb values for each entry.
Note: unit nM is implicit; provide only the numeric part.

Examples from the recorded data:
# Compound, Study target, Kb, nM
rows = [
    ("CCCCn1nc(C(F)(F)CC)nc1Cc1ccc(-c2ccccc2-c2nnn[nH]2)nc1", "rabbit aortic rings (Oryctolagus cuniculus, UniProt P34976)", 26.3),
    ("CCCCn1nc(C(O)CCC)nc1Cc1ccc(-c2ccccc2-c2nnn[nH]2)nc1 (centres unmarked)", "rabbit aortic rings (Oryctolagus cuniculus, UniProt P34976)", 27.5),
    ("CCCCn1nc(C(=O)NC)nc1Cc1ccc(-c2ccccc2-c2nnn[nH]2)nc1", "rabbit aortic rings (Oryctolagus cuniculus, UniProt P34976)", 91.2),
    ("CCCn1nc(C(F)(F)CCC)nc1Cc1ccc(-c2ccccc2-c2nnn[nH]2)nc1", "rabbit aortic rings (Oryctolagus cuniculus, UniProt P34976)", 26.3),
]

Below: the item to evaluate.
Challenge: Field request: Kb | item: CCCCc1nc(Cc2ccc(-c3ccccc3-c3nnn[nH]3)nc2)n(CCCC)n1
Response given: 15.8

----------
Documented Kb across a set of molecules
target: rabbit aortic rings (Oryctolagus cuniculus, UniProt P34976); construct: The thoracic aorta was removed, cleaned of adherent fat and connective tissue and then cut into 3-mm ring segments; from tissue; host or cells: rabbit thoracic aorta rings, endothelium removed; assay: Assay B: In Vitro Vascular Smooth Muscle Response for AII; set-up: species or system rabbit (male New Zealand white); conditions: rabbit aorta rings, two rabbits per antagonist; antagonist 10^-5 M, 5 minutes; AII contraction; Schild; read-out: pA2 (first of two values) (converted)
Remember to quote the unit after the number.

Example molecules with recorded Kb:
# Structure as smiles, Value
measured = [
    ("CCCCn1nc(C(C)(F)F)nc1Cc1ccc(-c2ccccc2-c2nnn[nH]2)nc1", "26.9 nM"),
    ("CCCn1nc(C(OC)OC)nc1Cc1ccc(-c2ccccc2-c2nnn[nH]2)nc1", "51.3 nM"),
    ("CCCCn1nc(-c2ccccc2Cl)nc1Cc1ccc(-c2ccccc2-c2nnn[nH]2)nc1", "5.89 nM"),
    ("CCCn1nc(C(F)(F)CCC)nc1Cc1ccc(-c2ccccc2-c2nnn[nH]2)nc1", "16.6 nM"),
    ("CCCn1nc(C(F)F)nc1Cc1ccc(-c2ccccc2-c2nnn[nH]2)nc1", "617 nM"),
]

Challenge: Which measured Kb belongs to CCCCn1nc(C(=O)NC(C)(C)C)nc1Cc1ccc(-c2ccccc2-c2nnn[nH]2)nc1 , tested on rabbit aortic rings (Oryctolagus cuniculus, UniProt P34976)?
Response given: 32.4 nM

----------
Property: Kb; scope: individual compounds
Target: rabbit aortic rings (Oryctolagus cuniculus, UniProt P34976)
Construct: The thoracic aorta was removed, cleaned of adherent fat and connective tissue and then cut into 3-mm ring segments; from tissue; host or cells: rabbit thoracic aorta rings, endothelium removed
Sequence (P34976 1-359): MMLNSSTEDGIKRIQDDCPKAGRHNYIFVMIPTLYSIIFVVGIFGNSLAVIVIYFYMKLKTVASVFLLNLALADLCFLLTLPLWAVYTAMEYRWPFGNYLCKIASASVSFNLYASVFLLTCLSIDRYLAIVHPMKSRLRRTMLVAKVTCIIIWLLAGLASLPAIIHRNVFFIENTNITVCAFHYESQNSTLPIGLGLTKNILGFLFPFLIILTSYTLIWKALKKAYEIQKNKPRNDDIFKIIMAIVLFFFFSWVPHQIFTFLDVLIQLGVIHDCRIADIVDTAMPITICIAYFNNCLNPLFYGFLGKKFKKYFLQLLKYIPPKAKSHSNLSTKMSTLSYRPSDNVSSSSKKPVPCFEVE
Test: Assay B: In Vitro Vascular Smooth Muscle Response for AII
Design: species or system rabbit (male New Zealand white)
Conditions: rabbit aorta rings, two rabbits per antagonist; antagonist 10^-5 M, 5 minutes; AII contraction; Schild; read-out: pA2 (first of two values) (converted)
Provide the reading as a plain figure in µM.

Consider the following illustrative entries.
# Compound, Kb (µM)
data = [
    ("CCCCn1nc(C2OCCCO2)nc1Cc1ccc(-c2ccccc2-c2nnn[nH]2)nc1 [Example 31]", 0.0275),
    ("CCCCn1nc(C(=O)NC)nc1Cc1ccc(-c2ccccc2-c2nnn[nH]2)nc1 [Example 23]", 0.0708),
    ("CCCCCc1nc(Cc2ccc(-c3ccccc3-c3nnn[nH]3)nc2)n(CCCC)n1 [Example 7]", 0.00933),
    ("CCCn1nc(C(C)(F)F)nc1Cc1ccc(-c2ccccc2-c2nnn[nH]2)nc1 [Example 16]", 0.126),
]

// switching to the query compound
Challenge: What value of Kb has been recorded for this entry: CCCCn1nc(C(F)(F)CC)nc1Cc1ccc(-c2ccccc2-c2nnn[nH]2)nc1 [Example 19]
Response given: 0.0204
